# Tested on: NCI-H460 lung
# procedure summary: NCI tumour cell line growth inhibition, 48 h
Param threshold (30 µM) applies to TGI; output 1 when value >= threshold, -1 when value < threshold.

Please review the entries below; each comes with its answer.
compound	label
COC(=O)C(=O)C(CC(=O)Nc1cccc(C(F)(F)F)c1)C(=O)OC (stereo not given)	1
CC/C=C\C[C@H](O)C/C=C1/C(=O)C=C[C@@H]1C/C=C\CCCC(=O)NC	-1
O=[N+]([O-])c1ccc(COc2cccc3cccnc23)cc1	-1
CS/C=C\C(=O)O[C@H]1C[C@@H]2[C@@H](O)c3occ(C)c3C[C@]2(C)[C@@H](C)C1	1
O=C1C=C2CC[C@H]3[C@@H]4CC[C@H](Oc5c6ccccc6nc6ccccc56)[C@H]4CC[C@@H]3[C@H]2CC1	1

Could you verify whether the entry `COc1ccc(-c2nc(-c3nc4ccc(C(F)(F)F)cc4[nH]3)c3ccccn23)cc1` shows TGI of no less than 30 µM?
1

Entry `O=C1CCCC2=C1CC1=C(CCCC1=O)N2c1cccc([N+](=O)[O-])c1` : is its TGI no less than 30 µM?
1

Test whether the compound COC(=O)C1C(O)C(C)C(O)OC1C(C)C(O)C(C)/C=C\C=C(/C)C(=O)Nc1c(C)c(OC(C)=O)c2c(c1O)C(=O)C(C)=C1OCOC(/C(C)=C/C(C)=O)=C12 (stereo not given) records TGI of 30 µM or higher.
-1

Assess whether reported TGI for Brc1ccc(C2SCc3nc4ccccc4n32)cc1 (stereo not given) sits at 30 µM or higher.
-1

Where do these numbers come from? They come from PubChem BioAssay (NCI).
